- Target Or System: UniProt Q9NYK1
- Sequence (Q9NYK1 27-1049): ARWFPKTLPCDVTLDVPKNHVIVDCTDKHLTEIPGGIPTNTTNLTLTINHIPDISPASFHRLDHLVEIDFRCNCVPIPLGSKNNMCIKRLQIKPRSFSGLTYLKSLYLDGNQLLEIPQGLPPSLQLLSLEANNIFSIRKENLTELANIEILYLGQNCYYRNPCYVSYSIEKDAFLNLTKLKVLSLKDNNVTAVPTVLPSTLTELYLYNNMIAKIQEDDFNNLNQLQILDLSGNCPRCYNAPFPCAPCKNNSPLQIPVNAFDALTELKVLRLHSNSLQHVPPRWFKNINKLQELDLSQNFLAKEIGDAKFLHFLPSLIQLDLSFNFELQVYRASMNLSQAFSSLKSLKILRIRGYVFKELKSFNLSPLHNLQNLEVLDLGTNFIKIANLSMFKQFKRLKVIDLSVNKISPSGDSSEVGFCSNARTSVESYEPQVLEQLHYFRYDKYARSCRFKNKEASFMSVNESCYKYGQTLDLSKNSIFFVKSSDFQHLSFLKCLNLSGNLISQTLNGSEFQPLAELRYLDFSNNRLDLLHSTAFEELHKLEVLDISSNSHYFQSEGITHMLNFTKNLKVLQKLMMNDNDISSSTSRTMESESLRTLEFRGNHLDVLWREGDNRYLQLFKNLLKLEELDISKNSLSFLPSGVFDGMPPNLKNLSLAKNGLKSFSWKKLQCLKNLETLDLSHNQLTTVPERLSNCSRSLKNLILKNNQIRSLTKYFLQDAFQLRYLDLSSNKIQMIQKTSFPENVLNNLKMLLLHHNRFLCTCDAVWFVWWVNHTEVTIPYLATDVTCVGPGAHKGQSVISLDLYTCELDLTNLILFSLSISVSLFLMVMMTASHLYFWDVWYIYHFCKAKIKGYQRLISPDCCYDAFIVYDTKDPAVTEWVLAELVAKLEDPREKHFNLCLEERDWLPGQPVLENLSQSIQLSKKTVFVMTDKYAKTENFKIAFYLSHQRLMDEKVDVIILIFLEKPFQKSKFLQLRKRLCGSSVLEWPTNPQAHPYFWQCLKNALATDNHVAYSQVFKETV
- Assay: TLR7 inhibition reporter assay (HEK-Blue, SEAP)
- Measurement Context: HEK-Blue cells overexpressing human TLR7, gardiquimod 7.5 μM, 22 hour incubation
pIC50: −log10 of the molar value.
Mark not satisfied for pIC50 values under 8, and satisfied for everything at or above.

Use these answered entries as a reference point.
In [3]: df
Out[3]:
                                   compound    class_label
0  Cc1cc(-c2[nH]c3ccc(C4CCN(C5CCOCC5)CC4)cc3c2C(C)C)cn2c(C)nnc12  not satisfied
1  Cc1c(-c2[nH]c3ccc(C4CCN(C5CC(C)OC(C)C5)CC4)cc3c2C(C)C)cn2cnnc2c1C (stereo not shown) [Example 92]      satisfied
2  Cc1nnc2ccc(-c3[nH]c4ccc(C5CCN(Cc6ncn(C)n6)CC5)cc4c3C(C)C)cn12  not satisfied
3  Cc1cc(-c2[nH]c3ccc(C4CCN(Cc5ccn(C)n5)CC4)cc3c2C(C)C)cn2cnnc12      satisfied
4  COc1cc(-c2[nH]c3ccc(C4CCN(C5COC5)CC4)cc3c2C(C)C)cn2cnnc12      satisfied
5  Cc1cc(-c2[nH]c3ccc(C4CCN(C5CCOCC5)CC4)cc3c2C(C)C)c(C)n2cnnc12  not satisfied

Now for another entry.
Exercise: Does `Cc1cc(-c2[nH]c3ccc(C4CCN(C5CCOCC5)CC4)cc3c2C(C)C)cn2cnnc12` have a reported pIC50 of at least 8?
Solution: satisfied

----------
Reported values of log10 IC50 for individual entries
- Target Or System: human TLR8 (Homo sapiens)
- Sequence (Q9NR97 27-1041): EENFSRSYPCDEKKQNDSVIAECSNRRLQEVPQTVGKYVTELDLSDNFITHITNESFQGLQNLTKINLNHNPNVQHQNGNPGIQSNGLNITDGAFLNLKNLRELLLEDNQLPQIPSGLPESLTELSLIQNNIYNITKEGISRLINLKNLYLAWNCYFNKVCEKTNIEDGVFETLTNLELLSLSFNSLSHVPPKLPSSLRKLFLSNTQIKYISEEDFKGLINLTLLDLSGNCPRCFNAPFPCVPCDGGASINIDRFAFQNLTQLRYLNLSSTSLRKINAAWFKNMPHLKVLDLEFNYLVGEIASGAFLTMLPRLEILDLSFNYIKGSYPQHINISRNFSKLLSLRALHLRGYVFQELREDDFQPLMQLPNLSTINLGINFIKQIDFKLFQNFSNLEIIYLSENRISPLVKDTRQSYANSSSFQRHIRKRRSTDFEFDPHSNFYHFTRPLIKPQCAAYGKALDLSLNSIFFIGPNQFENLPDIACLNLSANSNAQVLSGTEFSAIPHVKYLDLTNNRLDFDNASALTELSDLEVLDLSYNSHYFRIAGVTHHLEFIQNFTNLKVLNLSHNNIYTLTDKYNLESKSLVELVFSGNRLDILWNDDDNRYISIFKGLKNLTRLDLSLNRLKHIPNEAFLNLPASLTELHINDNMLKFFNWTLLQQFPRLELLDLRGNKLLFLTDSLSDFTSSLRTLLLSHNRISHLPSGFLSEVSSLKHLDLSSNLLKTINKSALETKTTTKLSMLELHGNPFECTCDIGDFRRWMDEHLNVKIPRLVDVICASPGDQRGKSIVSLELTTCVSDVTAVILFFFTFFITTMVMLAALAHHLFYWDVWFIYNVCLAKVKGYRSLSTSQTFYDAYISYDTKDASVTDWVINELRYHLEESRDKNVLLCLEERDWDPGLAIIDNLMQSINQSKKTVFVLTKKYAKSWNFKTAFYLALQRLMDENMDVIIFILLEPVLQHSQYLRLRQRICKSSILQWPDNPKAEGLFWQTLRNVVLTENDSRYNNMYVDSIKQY
- Assay: TLR8 inhibition reporter assay (HEK-Blue, SEAP)
- Measurement Context: HEK-Blue cells overexpressing human TLR8, R848 15.9 μM, 22 hour incubation
# log10 transformed; quantity=IC50; unit=nM

Use these answered entries as a reference point.
In [3]: df
Out[3]:
                                   compound  reported_metric  observed_value
0  Cc1c(-c2[nH]c3ccc(C4C[C@H]5CC[C@@H](C4)N5)cc3c2C(C)C)cn2cnnc2c1C (single isomer, unassigned) [Example 117]       log10 IC50            2.69
1  Cc1c(-c2[nH]c3ccc(C4CCN(CC(=O)N(C)C)CC4)cc3c2C(C)C)ccc2nncn12 [Example 25]       log10 IC50            1.45
2  Cc1cc(-c2[nH]c3ccc(C4CCN(C5COC5)CC4)cc3c2C(C)C)c(C)n2cnnc12 [Example 76]       log10 IC50            1.12
3  Cc1cc(-c2[nH]c3ccc(C4CCN(CC(=O)N(C)C)CC4)cc3c2C(C)C)cn2cnnc12 [Example 12]       log10 IC50            0.84
4  Cc1c(-c2[nH]c3ccc(C4CCN(C(C)C)CC4)cc3c2C(C)C)cn2cnnc2c1C [Example 99]       log10 IC50            0.92

Cc1c(-c2[nH]c3ccc(C4CCN(Cc5cn(C)nn5)CC4)cc3c2C(C)C)cn2cnnc2c1C [Example 83] yielded log10 IC50 of 0.86

// recorded log10 IC50 for Cc1c(-c2[nH]c3ccc(C4CCN(C5CCOCC5)CC4)cc3c2C(C)C)cn2cnnc2c1Cl [Example 81] : 1.03

log10 IC50 for Cc1cc(-c2[nH]c3ccc(C4CCNCC4)cc3c2C(C)C)c(C)n2cnnc12 [Example 9] is 1.06

Quick note, log10 IC50 for Cc1cc(-c2[nH]c3ccc(C4CCN(CC#N)CC4)cc3c2C(C)C)cn2cnnc12 [Example 37] landed at 0.81

// field: log10 IC50; key: COc1cc(-c2[nH]c3ccc(C4CCN(C)CC4)cc3c2C(C)C)cn2cnnc12 [Example 96] ; value = 1.55

Item: Cc1cc(-c2[nH]c3ccc(C4CCN(CC5COC5)CC4)cc3c2C(C)C)cn2cnnc12 [Example 30] | log10 IC50: 0.11
